This collection of values is drawn from paper PMC6141180.

# target.or.system: p38α (MAPK14), nonphosphorylated (mouse, UniProt P47811 1-360)
# Sequence (P47811 whole entry): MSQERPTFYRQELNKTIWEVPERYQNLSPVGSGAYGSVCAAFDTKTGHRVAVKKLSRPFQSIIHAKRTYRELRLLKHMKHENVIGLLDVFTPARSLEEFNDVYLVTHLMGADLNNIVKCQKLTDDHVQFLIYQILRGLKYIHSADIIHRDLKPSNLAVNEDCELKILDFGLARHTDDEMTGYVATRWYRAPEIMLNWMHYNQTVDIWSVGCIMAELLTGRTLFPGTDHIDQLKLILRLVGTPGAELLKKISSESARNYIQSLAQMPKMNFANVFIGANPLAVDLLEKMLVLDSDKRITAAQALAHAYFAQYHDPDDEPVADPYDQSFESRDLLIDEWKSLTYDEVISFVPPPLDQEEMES
# protocol: ITC
quantity: pKd
# pKd = -log10(concentration in molar units)

Bench note: what pKd did Ac-RVYPVSVPYSSAQSTSKTSVTLSLVMPSQ-NH2 [TAB1 (residues 384–412) peptide] show?
5.54
